assay: Pharmacokinetics experiments in CD-1 mice; type: in vivo, mouse; conditions: CD-1, mouse, plasma, po; gavage 5 mg/kg
measured_property: AUC(0-t) (ng·h/mL)

- structure_notation: "CC#CCn1c(N2CCC[C@@H](N)C2)nc2c1c(=O)n(Cc1nccnc1C#N)c(=O)n2C"
  test_value: 844

###

assay: Pharmacokinetics experiments in CD-1 mice; format: in vivo, mouse; conditions: CD-1, mouse, plasma; intravenous injection 2 mg/kg, 2.00 h; read-out: Plasma drug concentration

- structure_notation: "CC#CCn1c(N2CCC[C@@H](N)C2)nc2c1c(=O)n(Cc1nccnc1C#N)c(=O)n2C"
  units_label: "ng/mL"
  concentration at 2 h: 47.5
